Each entry below carries its recorded Maximum OD450 value.
ASSAY SYSTEM: T1, human EGFRvIII-hFc protein (human, UniProt P00533 25-645)
T1 construct: extracellular domain; also called immunogen A; hFc-tagged EGFRvIII protein; not shown: human IgG Fc fragment (hFc) of the pCpC vector
ASSAY EXPLANATION: ELISA, EGFRvIII-hFc coated
EXPERIMENTAL ENDPOINT: Maximum OD450 value (OD450)

* Chimeric antibody 63A10 (antibody, human IgG1, V domains shown, also called c63A10A7; chimeric antibody c63A10A7) VH: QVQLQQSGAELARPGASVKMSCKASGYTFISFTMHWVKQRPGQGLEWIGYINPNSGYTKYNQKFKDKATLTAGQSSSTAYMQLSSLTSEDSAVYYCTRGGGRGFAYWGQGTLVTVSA VL: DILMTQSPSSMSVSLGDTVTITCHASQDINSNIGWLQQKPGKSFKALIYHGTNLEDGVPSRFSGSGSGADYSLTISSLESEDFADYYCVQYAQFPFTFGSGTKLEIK | 3.6
* Humanized antibody h75G7C6-15 (antibody, human IgG1, V domains shown, also called VH-g2/VL-g2) VH: QVQLVQSGAEVKKPGASVKVSCKASGYTFTDYNMDWVKQAPGQGLEWIGDINPNNADTIYNQKFKGRVTLTVDKSTSTVYMELSSLRSEDTAVYYCARGDYDGYYPVYYAMDYWGQGTTVTVSS VL: ENVLTQSPATLSLSPGERATLSCRASSSVSSSYLHWYQQKPGQSPRLLIFSTSNLAAGIPARFSGSGSGTDYTLTISSLEPEDFAVYYCQQYSGYPLTFGGGTKVEIK | 3.19
* Humanized antibody h63A10A7-24 (antibody, human IgG1, V domains shown, also called VH-g4/VL-g6) VH: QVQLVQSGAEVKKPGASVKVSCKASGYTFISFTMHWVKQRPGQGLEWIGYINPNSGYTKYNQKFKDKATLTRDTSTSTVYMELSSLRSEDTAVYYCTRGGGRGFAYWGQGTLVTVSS VL: DILMTQSPSSLSASVGDRVTITCHASQDINSNIGWLQQKPGKSFKALIYHGTNLEDGVPSRFSGSGSGTDYTLTISSLQPEDFATYYCVQYAQFPFTFGQGTKLEIK | 3.67
* Humanized antibody h63A10A7-38 (antibody, human IgG1, V domains shown, also called VH-g7/VL-g3) VH: QVQLVQSGAEVKKPGASVKVSCKASGYTFISFTMHWVRQAPGQGLEWIGYINPNSGYTKYNQKFKDKATLTRDTSTSTVYMELSSLRSEDTAVYYCTRGGGRGFAYWGQGTLVTVSS VL: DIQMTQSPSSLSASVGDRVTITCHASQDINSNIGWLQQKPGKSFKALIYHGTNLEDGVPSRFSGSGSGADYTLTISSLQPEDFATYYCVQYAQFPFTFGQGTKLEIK | 3.7
* Humanized antibody h75G7C6-11 (antibody, human IgG1, V domains shown, also called VH-g1/VL-g2) VH: QVQLVQSGAEVKKPGASVKVSCKASGYTFTDYNMDWVRQAPGQGLEWIGDINPNNADTIYNQKFKGRVTLTVDTSTSTVYMELSSLRSEDTAVYYCARGDYDGYYPVYYAMDYWGQGTTVTVSS VL: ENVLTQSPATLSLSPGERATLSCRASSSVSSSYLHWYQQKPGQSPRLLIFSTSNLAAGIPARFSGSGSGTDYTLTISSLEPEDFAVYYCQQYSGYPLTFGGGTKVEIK | 2.96
